Biological target: Aldo-keto reductase family 1 member C2 (Homo sapiens, UniProt P52895)
Sequence (P52895 whole entry): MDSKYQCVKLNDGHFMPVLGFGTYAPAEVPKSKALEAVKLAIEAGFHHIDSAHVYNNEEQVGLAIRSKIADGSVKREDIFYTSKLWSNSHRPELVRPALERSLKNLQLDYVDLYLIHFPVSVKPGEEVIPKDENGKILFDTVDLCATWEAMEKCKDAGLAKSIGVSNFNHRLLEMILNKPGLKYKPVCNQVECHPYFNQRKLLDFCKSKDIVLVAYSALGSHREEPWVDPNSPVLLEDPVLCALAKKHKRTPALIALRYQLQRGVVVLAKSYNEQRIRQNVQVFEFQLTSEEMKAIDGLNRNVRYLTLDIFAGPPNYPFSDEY
Experiment: Inhibition of recombinant AKR1C2 using 1-acenaphthenol as substrate by spectrophotometry
property name: pIC50
The meaning of pIC50 here: minus log10 of the concentration in molar units.

O=C(Nc1ccc(Br)cc1C(=O)O)c1ccc(F)c([N+](=O)[O-])c1 :: 4.81
CCOc1cccc(C(=O)Nc2ccc(Br)cc2C(=O)O)c1 :: 4.77
CCCCOc1cccc(C(=O)Nc2ccc(Br)cc2C(=O)O)c1 :: 5.31

Now look at this entry.
Identify measured pIC50 associated with CCCCOc1cc(C(=O)Nc2ccccc2C(=O)O)ccc1[N+](=O)[O-]
5.19
